testProtocol: NCI Yeast Anticancer Drug Screen. Data for the bub3 strain (AID 167)
testParameters: S. cerevisiae bub3 mutant strain, at 50.0 µM, hits give high values
About 79,000 compounds went through this panel and 15% of them were active in at least one assay; those are over-represented in the sample as a whole.
measurementName: growth inhibition (%)
Provide the reading as a plain figure in %.

CC1(C)CC(=O)C(C=NC(=O)c2ccncc2)=C(O)C1; 14.9
O=C(NNC(=O)C(F)(F)F)C(F)(F)F; -12.8
CCCCCC(C/C=N/N(C)C)C(O)(C(F)(F)F)C(F)(F)F (configuration not stated); 15.4
C=Cc1c2[n-]c(c1C)/C=c1\[n-]/c(c(C)c1C=C)=C\c1[n-]c(c(CCC(=O)O)c1C)/C=c1\[n-]/c(c(C)c1CCC(=O)O)=C\2.[Co]; 19.2

Returns the measured growth inhibition for the input compound. Input: N#CC1C=Cc2ccccc2N1C(=O)Oc1ccccc1 (configuration not stated)
-7.8

Same question, `c1cncc(CNc2ncn[nH]2)c1` this time
-24.9

Same question, CC1(c2ccco2)CCC(=O)CC1=O (configuration not stated) this time
-12.9
